Tested on: Escherichia coli TOP10
Experiment: shrunken log2 fold change of peptide-encoding DNA abundance (4.5 h post-induction vs induction); higher = less antimicrobial activity (less host growth inhibition)
Settings: time post-induction: 4.5 h; library: site-saturation at positions 5, 18, 19, 20
So basically: shrunken log2 fold change at 0.03 or higher? That is true (1). Lower than 0.03? That is false (0).

> print(dat)
              residue.codes  classification
 1  RRIRFRPPRLPRPRPRPWFHPRP       false (0)
 2  RRIRLRPPRLPRPRPRPNHEPRP       false (0)
 3  RRIRKRPPRLPRPRPRPFWTPRP        true (1)
 4  RRIRERPPRLPRPRPRPIRCPRP        true (1)
 5  RRIRKRPPRLPRPRPRPPLTPRP        true (1)
 6  RRIRVRPPRLPRPRPRPHPCPRP        true (1)
 7  RRIRSRPPRLPRPRPRPHAMPRP       false (0)
 8  RRIRERPPRLPRPRPRPIMPPRP       false (0)
 9  RRIRPRPPRLPRPRPRPRAEPRP        true (1)
10  RRIRQRPPRLPRPRPRPHHAPRP       false (0)
11  RRIRQRPPRLPRPRPRPFLHPRP       false (0)
12  RRIRERPPRLPRPRPRPTHEPRP        true (1)
13  RRIRGRPPRLPRPRPRPQTAPRP        true (1)
14  RRIRRRPPRLPRPRPRPINEPRP       false (0)
15  RRIRDRPPRLPRPRPRPTSHPRP       false (0)
16  RRIRVRPPRLPRPRPRPCPYPRP       false (0)
17  RRIRKRPPRLPRPRPRPGINPRP        true (1)
18  RRIRWRPPRLPRPRPRPLNAPRP        true (1)
19  RRIRGRPPRLPRPRPRPYHNPRP       false (0)
20  RRIRRRPPRLPRPRPRPQPFPRP       false (0)
21  RRIRRRPPRLPRPRPRPGYHPRP        true (1)

====

System: Escherichia coli TOP10
Assay: shrunken log2 fold change of peptide-encoding DNA abundance (4.5 h post-induction vs induction); higher = less antimicrobial activity (less host growth inhibition)
Details: time post-induction: 4.5 h; library: site-saturation at positions 5, 18, 19, 20
Catalogue of shrunken log2 fold change readings, one per entry.
Endpoint: shrunken log2 fold change

> print(dat)
              residue.codes  observed.value
 1  RRIRTRPPRLPRPRPRPNMCPRP         0.00985
 2  RRIRWRPPRLPRPRPRPFNGPRP         -0.0132
 3  RRIRFRPPRLPRPRPRPPVNPRP           0.147
 4  RRIRHRPPRLPRPRPRPPSTPRP         -0.0909
 5  RRIRNRPPRLPRPRPRPKIGPRP         -0.0153
 6  RRIRKRPPRLPRPRPRPGKNPRP          -0.181
 7  RRIRARPPRLPRPRPRPAPCPRP           0.638
 8  RRIRPRPPRLPRPRPRPHTLPRP          -0.195
 9  RRIRCRPPRLPRPRPRPELDPRP         0.00162
10  RRIRCRPPRLPRPRPRPMHVPRP          0.0371
11  RRIRLRPPRLPRPRPRPLQPPRP           0.206
12  RRIRHRPPRLPRPRPRPFWWPRP          0.0369
13  RRIRVRPPRLPRPRPRPIFPPRP           0.199
14  RRIRKRPPRLPRPRPRPIWQPRP           0.163
15  RRIRIRPPRLPRPRPRPNLCPRP         -0.0543
16  RRIRTRPPRLPRPRPRPSARPRP          0.0995
17  RRIRRRPPRLPRPRPRPRFYPRP          -0.237
18  RRIRLRPPRLPRPRPRPFIMPRP           -0.79
19  RRIRIRPPRLPRPRPRPELMPRP        -0.00872
20  RRIRFRPPRLPRPRPRPNYQPRP          -0.467
21  RRIRCRPPRLPRPRPRPRVPPRP         -0.0115
22  RRIRNRPPRLPRPRPRPQCVPRP         -0.0063
23  RRIRRRPPRLPRPRPRPRLWPRP           0.273
24  RRIRLRPPRLPRPRPRPRQKPRP           0.154
25  RRIRNRPPRLPRPRPRPPPCPRP           0.756
26  RRIRRRPPRLPRPRPRPVPLPRP           0.385
27  RRIRYRPPRLPRPRPRPTSLPRP         -0.0466
28  RRIRYRPPRLPRPRPRPGGSPRP          -0.017
29  RRIRTRPPRLPRPRPRPAQCPRP            0.18
30  RRIRMRPPRLPRPRPRPNIRPRP          -0.169
31  RRIRERPPRLPRPRPRPDINPRP          -0.239
32  RRIRCRPPRLPRPRPRPRSKPRP          0.0908
33  RRIRGRPPRLPRPRPRPVFCPRP           0.206
34  RRIRTRPPRLPRPRPRPSVCPRP          -0.203
35  RRIRYRPPRLPRPRPRPDHWPRP          -0.166
36  RRIRLRPPRLPRPRPRPMYEPRP           0.129
37  RRIRFRPPRLPRPRPRPLLCPRP          -0.105
38  RRIRARPPRLPRPRPRPLITPRP           0.305
39  RRIRFRPPRLPRPRPRPSFDPRP           -0.62
40  RRIRMRPPRLPRPRPRPIGYPRP         -0.0789
41  RRIRQRPPRLPRPRPRPPEMPRP          -0.162
42  RRIRRRPPRLPRPRPRPRVQPRP           0.445
43  RRIRFRPPRLPRPRPRPHTEPRP          -0.731
44  RRIRSRPPRLPRPRPRPDRTPRP          -0.256
45  RRIRPRPPRLPRPRPRPMYIPRP         -0.0479
46  RRIRPRPPRLPRPRPRPQDVPRP          -0.373
47  RRIRFRPPRLPRPRPRPKHWPRP          0.0787
48  RRIRQRPPRLPRPRPRPKRMPRP         -0.0373
49  RRIRSRPPRLPRPRPRPYPSPRP          -0.203
50  RRIRPRPPRLPRPRPRPHGIPRP          0.0828
51  RRIRSRPPRLPRPRPRPSSDPRP          -0.107
52  RRIRGRPPRLPRPRPRPFCSPRP           0.143
53  RRIRSRPPRLPRPRPRPCEIPRP         -0.0377
54  RRIRSRPPRLPRPRPRPVQSPRP         -0.0536
55  RRIRYRPPRLPRPRPRPCFWPRP          -0.136

====

System: Escherichia coli TOP10;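 also: peptides expressed intracellularly from a pBAD plasmid library in pooled LB shake-flask culture, induced with 0.3% L-arabinose, DNA abundance read by NGS, three biological replicates, DESeq2 with apeglm shrinkage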
Test: shrunken log2 fold change of peptide-encoding DNA abundance (4.5 h post-induction vs induction); higher = less antimicrobial activity (less host growth inhibition)
Details: time post-induction: 4.5 h; library: site-saturation at positions 5, 18, 19, 20
Endpoint: shrunken log2 fold change

> print(dat)
              residue.codes                  system  observed.value
 1  RRIRARPPRLPRPRPRPGWRPRP  Escherichia coli TOP10           0.473
 2  RRIRPRPPRLPRPRPRPVIGPRP  Escherichia coli TOP10          0.0389
 3  RRIRQRPPRLPRPRPRPEICPRP  Escherichia coli TOP10          0.0414
 4  RRIRHRPPRLPRPRPRPDDHPRP  Escherichia coli TOP10          0.0155
 5  RRIRIRPPRLPRPRPRPKSRPRP  Escherichia coli TOP10          -0.108
 6  RRIRHRPPRLPRPRPRPTYSPRP  Escherichia coli TOP10          -0.489
 7  RRIRERPPRLPRPRPRPLVLPRP  Escherichia coli TOP10          -0.333
 8  RRIRTRPPRLPRPRPRPCCFPRP  Escherichia coli TOP10          -0.114
 9  RRIRWRPPRLPRPRPRPDKMPRP  Escherichia coli TOP10         -0.0535
10  RRIRPRPPRLPRPRPRPLDTPRP  Escherichia coli TOP10               1
11  RRIRHRPPRLPRPRPRPYCMPRP  Escherichia coli TOP10           -1.05
12  RRIRYRPPRLPRPRPRPVEQPRP  Escherichia coli TOP10          -0.191
13  RRIRIRPPRLPRPRPRPQHLPRP  Escherichia coli TOP10          -0.542
14  RRIRKRPPRLPRPRPRPSNYPRP  Escherichia coli TOP10          -0.312
15  RRIRTRPPRLPRPRPRPYPTPRP  Escherichia coli TOP10          -0.374
16  RRIRVRPPRLPRPRPRPAETPRP  Escherichia coli TOP10           0.344
17  RRIRYRPPRLPRPRPRPVLEPRP  Escherichia coli TOP10         -0.0835
18  RRIRYRPPRLPRPRPRPCNWPRP  Escherichia coli TOP10         -0.0748
19  RRIRMRPPRLPRPRPRPHQPPRP  Escherichia coli TOP10          0.0274
20  RRIRLRPPRLPRPRPRPNHSPRP  Escherichia coli TOP10           0.135
21  RRIRCRPPRLPRPRPRPGSFPRP  Escherichia coli TOP10           -0.22
22  RRIRLRPPRLPRPRPRPDQNPRP  Escherichia coli TOP10         -0.0565
23  RRIRKRPPRLPRPRPRPTDCPRP  Escherichia coli TOP10         -0.0167
24  RRIRGRPPRLPRPRPRPGQSPRP  Escherichia coli TOP10        -0.00151
25  RRIRDRPPRLPRPRPRPLCSPRP  Escherichia coli TOP10           0.513
26  RRIRVRPPRLPRPRPRPDRIPRP  Escherichia coli TOP10          -0.135
27  RRIRCRPPRLPRPRPRPVMEPRP  Escherichia coli TOP10         -0.0475
28  RRIRCRPPRLPRPRPRPYWEPRP  Escherichia coli TOP10          -0.388
29  RRIRSRPPRLPRPRPRPYPYPRP  Escherichia coli TOP10          -0.646
30  RRIRARPPRLPRPRPRPRTIPRP  Escherichia coli TOP10           0.148
31  RRIRSRPPRLPRPRPRPFHCPRP  Escherichia coli TOP10         -0.0582
32  RRIRDRPPRLPRPRPRPTGIPRP  Escherichia coli TOP10            0.26
33  RRIRQRPPRLPRPRPRPHRLPRP  Escherichia coli TOP10         -0.0506
34  RRIRIRPPRLPRPRPRPPCGPRP  Escherichia coli TOP10          -0.239
35  RRIRWRPPRLPRPRPRPILWPRP  Escherichia coli TOP10           0.117
36  RRIRTRPPRLPRPRPRPAKPPRP  Escherichia coli TOP10           0.583
37  RRIRKRPPRLPRPRPRPLQAPRP  Escherichia coli TOP10            1.34
38  RRIRARPPRLPRPRPRPNQAPRP  Escherichia coli TOP10          -0.117
39  RRIRWRPPRLPRPRPRPIWPPRP  Escherichia coli TOP10           0.684
40  RRIRNRPPRLPRPRPRPIDKPRP  Escherichia coli TOP10         -0.0756
41  RRIRQRPPRLPRPRPRPYQSPRP  Escherichia coli TOP10          -0.176
42  RRIRSRPPRLPRPRPRPLAQPRP  Escherichia coli TOP10           0.261
43  RRIRKRPPRLPRPRPRPDLFPRP  Escherichia coli TOP10           0.529
44  RRIRGRPPRLPRPRPRPLIQPRP  Escherichia coli TOP10           0.827
45  RRIRVRPPRLPRPRPRPIIIPRP  Escherichia coli TOP10          -0.235
46  RRIRNRPPRLPRPRPRPSRWPRP  Escherichia coli TOP10           0.417
47  RRIRTRPPRLPRPRPRPGDRPRP  Escherichia coli TOP10          0.0976
48  RRIRQRPPRLPRPRPRPGWYPRP  Escherichia coli TOP10           0.126
49  RRIRQRPPRLPRPRPRPPGCPRP  Escherichia coli TOP10           0.342
50  RRIRHRPPRLPRPRPRPEKSPRP  Escherichia coli TOP10          0.0275
51  RRIRKRPPRLPRPRPRPPNWPRP  Escherichia coli TOP10           0.593
52  RRIRERPPRLPRPRPRPYTRPRP  Escherichia coli TOP10          -0.252
53  RRIRIRPPRLPRPRPRPEIEPRP  Escherichia coli TOP10         -0.0562
54  RRIRIRPPRLPRPRPRPESMPRP  Escherichia coli TOP10          0.0174
55  RRIRFRPPRLPRPRPRPEEFPRP  Escherichia coli TOP10         -0.0316
56  RRIRTRPPRLPRPRPRPQVVPRP  Escherichia coli TOP10         -0.0349
57  RRIRWRPPRLPRPRPRPDQIPRP  Escherichia coli TOP10           0.134
58  RRIRARPPRLPRPRPRPRSKPRP  Escherichia coli TOP10           0.374
